Here, each record is paired with measured solubility at 4 h data.
experimental details: Aqueous solubility of the compound at pH 2.0 after 4 hrs
Type: physicochemical
measurement conditions: aqueous, pH 2
attribute measured: solubility at 4 h (µg/mL)

>>> print(df.to_string())
                                  structure  attribute_measured  obs_value
0  Cc1cc(/C=C/C#N)cc(C)c1Oc1cc(Nc2ccc(C#N)cc2)c(N)cc1CO   solubility at 4 h       20.9
1  Cc1cc(/C=C/C#N)cc(C)c1Oc1cc(Nc2ccc(C#N)cc2)c(N)cc1C(N)=O   solubility at 4 h       2.09
